Target: almond beta-glucosidase
Experiment: Beta-glucosidase inhibition assay, pH 4.8 (p-nitrophenol release)
Assay type: biochemical
Conditions: Table 3; at pH 4.8; read-out: β-glucosidase IC₅₀
pIC50: −log10 of the molar value.
Measured pIC50, listed per entry for reference.

Examples with their reported pIC50 follow.
{"molecule": "CN1CC(O)C(O)C1CO (stereo not drawn)", "pIC50": 4.44}
{"molecule": "OC[C@H]1[C@H](O)[C@@H](O)CN1Cc1ccc(Cl)cc1", "pIC50": "< 3.00"}

Let's switch to this molecule now.
Notebook: `OC[C@H]1[C@H](O)[C@@H](O)CN1CCCc1ccccc1` , pIC50 read as < 3.00

---

Measured β-Glucosidase pH 4.8 % Inhibition by item
Tested on: almond beta-glucosidase
Assay: Beta-glucosidase inhibition assay, pH 4.8 (p-nitrophenol release)
Format: biochemical
Conditions: Table 5; at 1.0 mM; pH 4.8
Numeric only. Scale: %

Solved cases below.
{"compound": "CC(=O)OCCN1C[C@H](OC(C)=O)[C@@H](OC(C)=O)[C@@H]1COC(C)=O", "β-Glucosidase pH 4.8 % Inhibition / %": 12}
{"compound": "OC[C@H]1[C@H](O)[C@@H](O)CN1Cc1ccc(Cl)cc1", "β-Glucosidase pH 4.8 % Inhibition / %": 19}
{"compound": "O=C(OCc1ccccc1)N1C[C@H](O)[C@@H](O)[C@@H]1CO", "β-Glucosidase pH 4.8 % Inhibition / %": 4}

Lab book: β-Glucosidase pH 4.8 % Inhibition of `OCCN1C[C@H](O)[C@@H](O)[C@@H]1CO` noted as 14

For record `CC(C)C(=O)OC[C@H]1[C@H](OC(=O)C(C)C)[C@@H](OC(=O)C(C)C)CN1C(=O)OCc1ccccc1` the listed β-Glucosidase pH 4.8 % Inhibition is 7

Quick note, β-Glucosidase pH 4.8 % Inhibition for `OC[C@H]1[C@H](O)[C@@H](O)CN1CCCc1ccccc1` landed at 34

GET /value?item= CCCCN1CC(O)C(O)C1CO (stereo not drawn) &field=β-Glucosidase pH 4.8 % Inhibition returns 20

The compound listed as `CC(=O)OC[C@H]1[C@H](OC(C)=O)[C@@H](OC(C)=O)CN1C(=O)OCc1ccccc1` has a reported β-Glucosidase pH 4.8 % Inhibition of 5

Looking up `CC(=O)OC[C@H]1[C@H](OC(C)=O)[C@@H](OC(C)=O)CN1C(=O)Cc1ccccc1` , I see its β-Glucosidase pH 4.8 % Inhibition listed as 0

---

Target: Yeast alpha-glucosidase (Saccharomyces cerevisiae, UniProt P53341)
Construct: purchased Sigma
Sequence (P53341 whole entry): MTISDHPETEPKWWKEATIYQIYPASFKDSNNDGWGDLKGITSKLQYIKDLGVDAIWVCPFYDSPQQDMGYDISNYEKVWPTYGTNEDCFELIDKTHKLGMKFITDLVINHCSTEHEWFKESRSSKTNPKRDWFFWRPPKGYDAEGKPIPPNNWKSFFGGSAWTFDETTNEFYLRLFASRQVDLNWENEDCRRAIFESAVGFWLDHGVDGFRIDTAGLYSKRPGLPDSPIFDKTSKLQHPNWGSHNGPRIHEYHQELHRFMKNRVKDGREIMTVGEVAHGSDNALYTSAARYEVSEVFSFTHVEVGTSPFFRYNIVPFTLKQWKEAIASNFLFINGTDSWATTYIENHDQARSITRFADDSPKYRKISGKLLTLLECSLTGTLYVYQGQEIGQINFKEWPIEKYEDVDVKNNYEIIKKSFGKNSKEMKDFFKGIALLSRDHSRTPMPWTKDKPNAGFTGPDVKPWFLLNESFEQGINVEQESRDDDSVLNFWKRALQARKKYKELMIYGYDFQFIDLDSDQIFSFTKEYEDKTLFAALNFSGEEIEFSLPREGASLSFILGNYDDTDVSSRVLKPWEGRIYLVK
Test: Alpha-glucosidase inhibition assay, pH 7.4 (p-nitrophenol release)
Format: biochemical
Details: Table 5; values marked *; read-out: α-Glucosidase IC₅₀
Procedure: Yeast alpha-glucosidase and almond beta-glucosidase activities were measured by a modification of the method of Evans, et al., Phytochemistry 22, 768-770 (1983). […] The release of p-nitrophenol from the substrate p-nitrophenylglycoside was measured spectrophotometrically in the presence and absence of test compound. […] IC₅₀ values were determined for compounds which inhibited the enzymes more than 50% at a 1 millimolar concentration. […]
attributeMeasured: IC50 (µM)
Please give a number only; it is taken to be in µM.

Sample answers from the record:
{"compound": "CC(C)C(=O)OC[C@H]1[C@H](OC(=O)C(C)C)[C@@H](OC(=O)C(C)C)CN1C(=O)OCc1ccccc1", "unitOfMeasure": "µM", "IC50": 33}
{"compound": "O=C(OCc1ccccc1)N1C[C@H](O)[C@@H](O)[C@@H]1CO", "unitOfMeasure": "µM", "IC50": 482}
{"compound": "CCCCN1CC(O)C(O)C1CO (stereo not shown)", "unitOfMeasure": "µM", "IC50": 227}

Then there is this compound:
Sample `OCCN1C[C@H](O)[C@@H](O)[C@@H]1CO` , system: Yeast alpha-glucosidase (Saccharomyces cerevisiae, UniProt P53341). Its IC50 is 178

Measured values drawn from patent EP0367747A2 for this set.
